Examples of compounds with documented TGI follow.
# System: HOP-62 NSCLC
# Experiment summary: NCI tumour cell line growth inhibition, 48 h

Compound: Cn1cc(C2=C(c3cn(CCO)c4ccccc34)C(=O)NC2=O)c2ccccc21
System name: HOP-62 NSCLC
TGI: > 16.6 µM

Answer with the recorded TGI of "COc1ccc(/C(Cl)=C(/c2ccc(O)cc2)c2ccc(OCCN(C)C)cc2)cc1" only. 26.7 µM

Answer with the recorded TGI of N#CC(C(=O)/C(=N/NC(=O)c1ccccc1O)C(C#N)c1ccccc1)c1ccccc1 (stereo not given) only. > 100 µM

Answer with the recorded TGI of "O=C(N/N=C(/COc1ccc(Cl)cc1)N=Cc1cccnc1)c1ccncc1" only. > 100 µM

Answer with the recorded TGI of Cc1ccc(NP(=O)(Oc2ccccc2)N(CCCl)CCCl)cc1 (stereo not given) only. > 100 µM

Answer with the recorded TGI of N#CC(c1nc2ccccc2s1)c1ncnc(Cl)c1[N+](=O)[O-] (stereo not given) only. 97.2 µM

Answer with the recorded TGI of CN(CCCCCl)P(=O)(OCc1ccc([N+](=O)[O-])o1)OCC1OC(n2ccc(N)nc2=O)C(F)(F)C1O (stereo not given) only. > 100 µM

Answer with the recorded TGI of N#CC(/C(=N/NC(=O)C(=O)NN)C(=O)Nc1nc([N+](=O)[O-])cs1)c1ccc(Cl)cc1 (stereo not given) only. > 100 µM

Answer with the recorded TGI of "N#C/C(=N\Nc1ccc(Cl)cc1)C(=O)Nc1cc(-c2ccccc2)nn1-c1ccccc1" only. > 100 µM

Answer with the recorded TGI of "CC(=O)Nc1ccc(/C=C/C(=O)c2ccccc2)cc1" only. 29.3 µM
